Molecular target: human blood AChE (Homo sapiens)
Construct: 90 µL undiluted blood in a 48-wells plate; from tissue; host or cells: venous EDTA whole blood from healthy human donors, lysed and diluted in Triton X-100 buffer
Assay: AChE inhibition in human donor whole blood (Ellman method)
Assay type: biochemical
Settings: donor 20; read-out: IC50 Value
property: pIC50
Scale explanation: pIC50 corresponds to minus log10 of a concentration expressed in moles per litre.

Q: What does the data say about its pIC50? Entry: "CCOP(=O)(OCC)Oc1cc(C)nc(C(C)C)n1"
Ans: 5.57

###

Biological target: human blood AChE (Homo sapiens, UniProt P22303)
Construct: 90 µL undiluted blood in a 48-wells plate; from tissue; host or cells: venous EDTA whole blood from healthy human donors, lysed and diluted in Triton X-100 buffer
Sequence (P22303 32-617 isoform P22303-2 limits assumed): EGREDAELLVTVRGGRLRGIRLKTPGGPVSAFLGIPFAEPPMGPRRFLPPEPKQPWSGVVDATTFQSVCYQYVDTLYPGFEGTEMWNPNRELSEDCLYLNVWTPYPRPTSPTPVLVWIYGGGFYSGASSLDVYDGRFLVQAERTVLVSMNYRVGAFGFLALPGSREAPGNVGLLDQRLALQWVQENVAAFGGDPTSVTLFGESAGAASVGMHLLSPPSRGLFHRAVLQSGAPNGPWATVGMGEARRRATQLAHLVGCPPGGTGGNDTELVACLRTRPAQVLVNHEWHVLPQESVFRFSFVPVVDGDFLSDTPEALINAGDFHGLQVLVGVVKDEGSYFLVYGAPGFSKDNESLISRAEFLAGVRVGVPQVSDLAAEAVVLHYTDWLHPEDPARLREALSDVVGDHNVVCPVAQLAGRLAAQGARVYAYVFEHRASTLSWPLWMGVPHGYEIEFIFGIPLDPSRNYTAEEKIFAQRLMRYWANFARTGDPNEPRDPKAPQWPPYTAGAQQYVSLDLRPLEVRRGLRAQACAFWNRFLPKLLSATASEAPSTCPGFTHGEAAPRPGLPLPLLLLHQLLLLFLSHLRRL
Experiment: AChE inhibition in human donor whole blood (Ellman method)
Format: biochemical
Settings: IC50 Value, donor 17
property: IC50 (µM)
Form entry: value (µM) — number only.

Q: Field request: IC50 | item: "Cc1nc(N(C)C)nc(OC(=O)N(C)C)c1C"
Ans: 16

###

Target: human blood AChE (Homo sapiens, UniProt P22303)
Construct: 90 µL undiluted blood in a 48-wells plate; from tissue; host or cells: venous EDTA whole blood from healthy human donors, lysed and diluted in Triton X-100 buffer
Experiment: AChE inhibition in human donor whole blood (Ellman method)
Assay type: biochemical
Conditions: donor 2; read-out: IC50 Value
property: IC50 (nM)
Please respond with the number in nM and leave the unit unwritten.

Q: Which IC50 is reported for this compound? "CCOP(=O)(OCC)Oc1cc(C)nc(C(C)C)n1"
Ans: 1700

###

Target: human blood AChE (Homo sapiens)
Construct: 90 µL undiluted blood in a 48-wells plate; from tissue; host or cells: venous EDTA whole blood from healthy human donors, lysed and diluted in Triton X-100 buffer
Test: AChE inhibition in human donor whole blood (Ellman method)
Format: biochemical
Conditions: donor 6; read-out: IC50 Value
property: IC50 (nM)
Write it as a number; the unit nM goes unstated.

Q: I'd like to know its IC50. The compound in question is "CCOP(=O)(OCC)Oc1cc(C)nc(C(C)C)n1"
Ans: 2600

###

Target: human blood AChE (Homo sapiens, UniProt P22303)
Construct: 90 µL undiluted blood in a 48-wells plate; from tissue; host or cells: venous EDTA whole blood from healthy human donors, lysed and diluted in Triton X-100 buffer
Assay: AChE inhibition in human donor whole blood (Ellman method)
Format: biochemical
Settings: IC50 Value, donor 14
property: pIC50
Entry type: numeric. Quantity: pIC50, the -log10 of concentration in molar units.

Q: # pIC50 lookup, item "Cc1nc(N(C)C)nc(OC(=O)N(C)C)c1C"
Ans: 4.82

###

Target: human blood AChE (Homo sapiens, UniProt P22303)
Construct: 90 µL undiluted blood in a 48-wells plate; from tissue; host or cells: venous EDTA whole blood from healthy human donors, lysed and diluted in Triton X-100 buffer
Assay: AChE inhibition in human donor whole blood (Ellman method)
Format: biochemical
Settings: donor 12; read-out: IC50 Value
property: IC50 (µM)
Report the value in µM with no unit label.

Q: Consider the compound shown here: CCOP(=O)(OCC)Oc1cc(C)nc(C(C)C)n1 [DZO, diazinon-oxon] What is its recorded IC50?
Ans: 3.7

###

Molecular target: human blood AChE (Homo sapiens, UniProt P22303)
Construct: 90 µL undiluted blood in a 48-wells plate; from tissue; host or cells: venous EDTA whole blood from healthy human donors, lysed and diluted in Triton X-100 buffer
Test: AChE inhibition in human donor whole blood (Ellman method)
Assay type: biochemical
Conditions: donor 3; read-out: IC50 Value
property: pIC50
Lab note: report pIC50 as minus log10 of the concentration in molar units, number only.

Q: Could you share which pIC50 value was measured for CCOP(=O)(OCC)Oc1cc(C)nc(C(C)C)n1 [DZO, diazinon-oxon] ?
Ans: 5.64
